Ref: ChEMBL document CHEMBL3351500

test: Clearance in mouse plasma at 1 mg/kg, iv; assay type: ADME, organism-based; parameters: dose 1 mg/kg, route intravenous
The entries below come with measured clearance values attached.
Field format: number, assumed mL/min/kg, no unit text.

Worked cases, clearance given:
{"SMILES CODE": "CC(C)(O)Cn1cc(-c2ccc(-c3cc4c(Nc5ccncc5)ncnn4c3)cc2)cn1", "UNITS TEXT": "mL/min/kg", "clearance": 22}
{"SMILES CODE": "CN1CCN(c2ccc(-c3cc4c(Nc5ccncc5)ncnn4c3)cn2)CC1", "UNITS TEXT": "mL/min/kg", "clearance": 78}

API: the following record is the query input.
stdin: Please list clearance recorded for the molecule CS(=O)(=O)c1ccc(-c2cc3c(Nc4ccncc4)ncnn3c2)cc1
stdout: 25
